target: T1, recombinant biotinylated CD71 extracellular domain (Sino Biologics) with an N-terminal 6His tag (human, UniProt P02786 89-760, biotinylated (site not stated)); assay: primary solution ELISA screen
T1 construct: extracellular domain; also called hCD71; huCD71 ECD
T1 sequence (P02786 other isoform, or with tags, fused parts or gaps): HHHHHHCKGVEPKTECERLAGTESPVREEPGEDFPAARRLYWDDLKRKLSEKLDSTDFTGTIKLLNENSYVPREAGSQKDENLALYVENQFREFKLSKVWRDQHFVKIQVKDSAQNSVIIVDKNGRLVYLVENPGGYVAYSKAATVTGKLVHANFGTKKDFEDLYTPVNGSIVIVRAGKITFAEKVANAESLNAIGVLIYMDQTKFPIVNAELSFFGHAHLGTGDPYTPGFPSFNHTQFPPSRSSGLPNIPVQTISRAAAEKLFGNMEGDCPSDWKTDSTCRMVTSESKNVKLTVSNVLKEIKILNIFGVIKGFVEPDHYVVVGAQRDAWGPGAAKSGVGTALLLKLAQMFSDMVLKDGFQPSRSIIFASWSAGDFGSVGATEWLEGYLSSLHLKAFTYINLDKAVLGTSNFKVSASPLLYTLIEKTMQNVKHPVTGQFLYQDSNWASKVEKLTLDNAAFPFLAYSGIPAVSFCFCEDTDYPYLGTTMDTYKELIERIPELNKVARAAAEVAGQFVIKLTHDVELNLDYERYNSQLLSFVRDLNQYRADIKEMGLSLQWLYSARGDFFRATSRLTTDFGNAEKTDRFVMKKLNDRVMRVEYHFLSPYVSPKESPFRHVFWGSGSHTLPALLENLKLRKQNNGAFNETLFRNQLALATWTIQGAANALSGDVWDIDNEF
I'd appreciate it if you could supply RLU values for the items below.
Give bare numbers, in RLU.

SEQ ID NO 41 (designed binder, not shown: small tags and cut ends, FN3 domain, hit of the apical domain panning) MLPAPKNLVVSRVTEDSARLSWQGVARAFDSFLITYREQIFAGEVIVLTVPGSERSYDLTGLKPGTEYPVWIQGVKGGHLSDPLSAIVTT; 1.37e+06
SEQ ID NO 81 (designed binder, not shown: small tags and cut ends, FN3 domain, hit of the apical domain panning) MLPAPKNLVVSRVTEDSARLSWQGVARAFDSFLITYVELRHLGEAIVLTVPGSERSYDLTGLKPGTEYPVWIQGVKGGSPSAPLSAEFTT; 864000
SEQ ID NO 34 (designed binder, not shown: small tags and cut ends, FN3 domain, hit of the apical domain panning) MLPAPKNLVVSRVTEDSARLSWTAPDAAFDSFYITYVELNLAGEAIVLTVPGSERSYDLTGLKPGTEYPVPILGVKGGSLSQPLSAIFTT; 1.58e+06
SEQ ID NO 28 (designed binder, not shown: small tags and cut ends, FN3 domain, hit of the apical domain panning) MLPAPKNLVVSEVTEDSARLSWQGVVRAFDSFLITYREQIFAGEVIVLTVPGSERSYDLTGLKPGTEYPVWIQGVKGGSPSAPLSAEFTT; 383000

I'm hoping you can list RLU for every binder here, please.
1. SEQ ID NO 12 (designed binder, not shown: small tags and cut ends, FN3 domain, hit of the apical domain panning) MLPAPKNLVVSRVTEDSARLSWTAPDAAFDSFFIPYAEPSPTGEAIVLTVPGSERSYDLTGLKPGTEYSVLIHGVKGGHLSDPLSAISTT
2. SEQ ID NO 100 (designed binder, not shown: small tags and cut ends, FN3 domain, hit of the apical domain panning) MLPAPKNLVVSRVTEDSARLSWTAPDAAFDSFYIWYEEVMYLGEAIVLTVPGSERSYDLTGLKPGTEYNVPIPGVKGGHSSPPLSAIFTT
3. SEQ ID NO 61 (designed binder, not shown: small tags and cut ends, FN3 domain, hit of the apical domain panning) MLPAPKNLVVSRVTEDSARLSWTAPDAAFDSFQIVYSELWIKGEAIVLTVPGSERSYDLTGLKPGTEYQVPIPGVKGGRNSFPLSAIFTT
4. SEQ ID NO 97 (designed binder, not shown: small tags and cut ends, FN3 domain, hit of the apical domain panning) MLPAPKNLVVSRVTEDSARLSWTAPDAAFDSFHIWYEEETTIGEAIYLHVPGSERSYDLTGLKPGTEYEVHITGVKGGPYSRPLFANFTT

["1.24e+06", 408000, 252000, 957000]

Fill in RLU for each of the 4 binders listed.
1. SEQ ID NO 29 (designed binder, not shown: small tags and cut ends, FN3 domain, hit of the apical domain panning) MLPAPKNLVVSRVTEDSARLSWTAPDAAFDSFWIEYWEAVGFGEAIVLTVPGSERSYDLTGLKPGTEYFVGIYGVKGGYLSAPLSAIFTT
2. SEQ ID NO 75 (designed binder, not shown: small tags and cut ends, FN3 domain, hit of the apical domain panning) MLPAPKNLVVSRVTEDSARLSWTAPDAAFDSFTISYGEEALIGEAIYLRVPGSERSYDLTGLKPGTEYYVHIEGVKGGSWSQPLAAAFTT
3. SEQ ID NO 101 (designed binder, not shown: small tags and cut ends, FN3 domain, hit of the apical domain panning) MLPAPKNLVVSRVTEDSARLSWTAPDAAFDSFHILYEELFLVGEAIVLTVPGSERSYDLTGLKPGTEYKVPISGVKGGPVSRPLSAIFTT
4. SEQ ID NO 87 (designed binder, not shown: small tags and cut ends, FN3 domain, hit of the apical domain panning) MLPAPKNLVVSRVTEDSARLSWTAPDAAFDSFAIEYTEFLYSGEAIVLTVPGSERSYDLTGLKPGTEYGVPINGVKGGFVSPPLSAIVTT

2.17e+06
530000
336000
282000
